- Test system: RAW264.7
- Assay text: Anti-inflammatory activity in mouse RAW264.7 cells assessed as inhibition of LPS-induced Il-1beta secretion measured after 24 hrs by Western blot analysis relatively to control
- Format: functional
Reported inhibition (INH) by item:
API: value field is a number in %; no unit string.

Past entries and their recorded results:
> print(dat)
                                   compound  target.system  unit.string  readout.number
1  Cc1ccc(S(=O)(=O)Nc2cc(C)cc(NS(=O)(=O)c3ccc(C)cc3)c2C(=O)O)cc1       RAW264.7            %              66
2  COc1ccc(NS(=O)(=O)c2ccc(C)cc2)c(C(=O)O)c1NS(=O)(=O)c1ccc(C)cc1       RAW264.7            %             -21
3  Cc1ccc(S(=O)(=O)Nc2cccc([N+](=O)[O-])c2C(=O)O)cc1       RAW264.7            %              81
4   Cc1ccc(S(=O)(=O)Nc2cccc(Cl)c2C(=O)O)cc1       RAW264.7            %              45
5    Cc1ccc(S(=O)(=O)Nc2cccc(C)c2C(=O)O)cc1       RAW264.7            %              37

Prompt: Param readout= inhibition (INH); system= RAW264.7; entry= CC(C)Cc1ccc(C(C)C(=O)O)cc1 (stereo unspecified) ; returns value.
Response: 35

Prompt: Entry Cc1cccc(NS(=O)(=O)c2ccc([N+](=O)[O-])cc2)c1C(=O)O please
Response: 66

Prompt: Entry Cc1ccc(S(=O)(=O)Nc2ccc3ccccc3c2C(=O)O)cc1 please
Response: 9
